experimental_system: T1, recombinant chicken leptin binding domain (chLBD) (chicken)
T1 construct: The 1:1 complex with leptin has a predicted mass of 40.5 kDa, so chLBD is about 24.5 kDa
method: SPR (Biacore 3000), leptin mutant amine-coupled to CM5 chip, soluble chLBD as analyte, 25 C, 1:1 Langmuir fit, mean of 2 experiments
Protocol: (v) Kinetic measurements of leptin and leptin mutants interaction with chLBD. All experiments were performed at 25° C. using surface plasmon resonance (SPR) methodology. The kinetics and equilibrium constants for the interactions between human and chicken recombinant LBD and chicken and hLep were determined using the Biacore 3000 system (Uppsala, Sweden). […]
reported_endpoint: Kd (nM)
Field format: number, assumed nM, no unit text.

Data request: Look at this binder and give its reported Kd. ovine leptin L39A/D40A/F41A/I42A mutant (ligand, also called L39A/D40A/F41A/I42A (ovine)) VSIRKVQDDTKTLIKTIVTRINDISHTQSVSSKQRVTGAAAAPGLHPLLSLSKMDQTLAIYQQILASLPSRNVIQISNDLENLRDLLHLLAASKSCPLPQVRALESLESLGVVLEASLYSTEVVALSRLQGSLQDMLRQLDLSPGC
Data returned: 29.3

The reported measurements were obtained from patent US20060154859A1.
